Assay overview: in vitro
Condition info: pig, PAMPA, pH 7.4
Property measured: Papp (×10⁻⁶ cm/s)
Numeric answer only, unit ×10⁻⁶ cm/s assumed.

Field request: Papp | item: COc1cc(Cn2cc(COc3ccc4ccc(=O)oc4c3C(C)=O)nn2)cc(OC)c1 [10b]
5.68

----------
Study system: UniProt O42275
Sequence (O42275 24-633): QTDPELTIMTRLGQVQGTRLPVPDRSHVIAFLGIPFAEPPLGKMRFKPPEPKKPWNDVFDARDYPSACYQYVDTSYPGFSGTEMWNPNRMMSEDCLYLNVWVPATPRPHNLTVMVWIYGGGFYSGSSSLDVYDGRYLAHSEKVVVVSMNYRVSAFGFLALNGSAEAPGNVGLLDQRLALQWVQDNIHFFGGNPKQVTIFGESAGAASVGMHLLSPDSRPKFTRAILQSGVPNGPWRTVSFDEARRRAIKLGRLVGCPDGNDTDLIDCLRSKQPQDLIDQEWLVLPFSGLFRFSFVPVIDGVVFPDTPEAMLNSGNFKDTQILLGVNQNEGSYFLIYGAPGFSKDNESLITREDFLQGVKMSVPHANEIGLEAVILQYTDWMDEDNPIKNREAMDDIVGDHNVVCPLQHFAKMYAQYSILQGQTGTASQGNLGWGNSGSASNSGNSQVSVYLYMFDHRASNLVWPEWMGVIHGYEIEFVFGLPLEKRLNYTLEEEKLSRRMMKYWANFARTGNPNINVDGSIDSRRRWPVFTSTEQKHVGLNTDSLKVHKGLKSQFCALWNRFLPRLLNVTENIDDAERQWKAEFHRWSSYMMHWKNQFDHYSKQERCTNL
Property measured: Ki (nM)
Numeric answer only, unit nM assumed.

Entry COc1cc(Cn2cc(COc3ccc4ccc(=O)oc4c3C(C)=O)nn2)cc(OC)c1 [10b] , system UniProt O42275: what Ki was measured?
270

----------
Study system: UniProt:O42275
Assay overview: AChE inhibition and enzyme kinetics, Ellman assay
Format: biochemical, electric eel
Condition info: IC50 (μM) ± SD EeAChE, Ellman assay
Property measured: IC50
Be sure to follow the number with its unit.

The cases that follow already have their IC50 on record.
O=c1cc(OCc2cn(Cc3ccccc3F)nn2)c2ccccc2o1 | 89.2 µM
Cc1cc(=O)oc2cc(OCc3cn(Cc4ccccc4OC(F)(F)F)nn3)c(OCc3cn(Cc4ccccc4OC(F)(F)F)nn3)cc12 [13d] | 176 µM

Field request: IC50 | item: Cc1cc(=O)oc2cc(O)c(O)cc12 [compound 11, 4-methyl-6,7-dihydroxycoumarin]
68.1 µM

Field request: IC50 | item: Cc1cc(=O)oc2cc(OCc3cn(Cc4ccccc4C(F)(F)F)nn3)c(OCc3cn(Cc4ccccc4C(F)(F)F)nn3)cc12 [13c]
155 µM

Field request: IC50 | item: COc1cccc(Cn2cc(COc3cc4oc(=O)cc(C)c4cc3OCc3cn(Cc4cccc(OC)c4)nn3)nn2)c1 [13a]
131 µM

----------
Study system: eqBChE (Equus caballus, UniProt P81908)
Sequence (P81908 whole entry): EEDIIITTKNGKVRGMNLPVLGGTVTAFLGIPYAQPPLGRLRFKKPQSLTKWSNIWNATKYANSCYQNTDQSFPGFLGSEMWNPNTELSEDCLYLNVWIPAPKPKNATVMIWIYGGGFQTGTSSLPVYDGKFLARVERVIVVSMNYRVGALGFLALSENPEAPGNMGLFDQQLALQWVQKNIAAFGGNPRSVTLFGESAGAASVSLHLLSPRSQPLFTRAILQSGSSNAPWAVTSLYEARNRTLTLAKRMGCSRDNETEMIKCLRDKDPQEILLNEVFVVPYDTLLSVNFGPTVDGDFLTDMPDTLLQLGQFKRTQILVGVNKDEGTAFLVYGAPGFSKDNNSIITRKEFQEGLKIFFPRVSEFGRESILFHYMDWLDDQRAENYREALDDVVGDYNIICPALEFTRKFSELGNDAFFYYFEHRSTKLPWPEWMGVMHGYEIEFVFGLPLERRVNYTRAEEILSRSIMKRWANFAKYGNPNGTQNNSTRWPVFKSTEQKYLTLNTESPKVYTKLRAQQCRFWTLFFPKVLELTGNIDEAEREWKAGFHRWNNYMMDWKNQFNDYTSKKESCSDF
pIC50: −log10 of the molar value.
Mark True for reported pIC50 of 4 or greater; mark False for anything smaller.

Use the examples below as a reference point.
COc1cc(Cn2cc(COc3ccc4ccc(=O)oc4c3)nn2)cc(OC)c1 [19b] | True
Cc1ccccc1Cn1cc(COc2cc(=O)oc3ccccc23)nn1 | False

# bool: pIC50 of COc1cccc(Cn2cc(COc3ccc4ccc(=O)oc4c3)nn2)c1 [19a] >= 4
True

# bool: pIC50 of Cc1cc(=O)oc2cc(O)c(O)cc12 [compound 11, 4-methyl-6,7-dihydroxycoumarin] >= 4
False

# bool: pIC50 of "O=c1cc(OCc2cn(Cc3ccc(C(F)(F)F)cc3)nn2)c2ccccc2o1" >= 4
False

# bool: pIC50 of "COc1cc2c(C)cc(=O)oc2cc1O" >= 4
False

# bool: pIC50 of "COc1cc(Cn2cc(COc3cc(=O)oc4ccccc34)nn2)cc(OC)c1" >= 4
True

# bool: pIC50 of "O=c1cc(OCc2cn(Cc3cccc(F)c3)nn2)c2ccccc2o1" >= 4
False

----------
Study system: hBACE-1 (Homo sapiens)
Sequence (P56817 46-501): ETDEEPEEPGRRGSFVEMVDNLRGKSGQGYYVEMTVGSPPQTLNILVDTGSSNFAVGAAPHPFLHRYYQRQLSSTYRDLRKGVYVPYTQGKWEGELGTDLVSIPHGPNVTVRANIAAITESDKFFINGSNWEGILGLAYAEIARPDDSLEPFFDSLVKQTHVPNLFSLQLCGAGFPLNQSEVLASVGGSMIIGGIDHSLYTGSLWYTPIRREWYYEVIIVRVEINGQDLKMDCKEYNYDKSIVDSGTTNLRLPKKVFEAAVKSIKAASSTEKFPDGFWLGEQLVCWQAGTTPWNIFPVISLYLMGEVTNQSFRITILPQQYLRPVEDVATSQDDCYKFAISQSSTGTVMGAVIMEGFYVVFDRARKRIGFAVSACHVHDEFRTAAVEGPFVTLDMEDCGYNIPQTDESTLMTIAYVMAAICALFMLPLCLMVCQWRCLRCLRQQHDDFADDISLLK
Property measured: Ki (µM)
Numeric answer only, unit µM assumed.

Field request: Ki | item: COc1cc(Cn2cc(COc3ccc4ccc(=O)oc4c3C(C)=O)nn2)cc(OC)c1 [10b]
7

----------
Reported values: pIC50 for hBACE-1 (Homo sapiens), one per item.
Formally, pIC50 is defined as -log10 of the concentration c, with c in mol/L.

O=c1cc(OCc2cn(Cc3ccccc3OC(F)(F)F)nn2)c2ccccc2o1 | 4.75
O=c1cc(OCc2cn(Cc3c(Cl)cccc3Cl)nn2)c2ccccc2o1 | 3.98

Entry COc1cccc(Cn2cc(COc3ccc4ccc(=O)oc4c3)nn2)c1 [19a] , system hBACE-1 (Homo sapiens): what pIC50 was measured?
3.90

Entry "COc1cc2c(C)cc(=O)oc2cc1O" , system hBACE-1 (Homo sapiens): what pIC50 was measured?
4.04

Entry COc1cccc(Cn2cc(COc3cc4oc(=O)cc(C)c4cc3OCc3cn(Cc4cccc(OC)c4)nn3)nn2)c1 [13a] , system hBACE-1 (Homo sapiens): what pIC50 was measured?
3.89

Entry COc1cc(Cn2cc(COc3ccc4ccc(=O)oc4c3)nn2)cc(OC)c1 [19b] , system hBACE-1 (Homo sapiens): what pIC50 was measured?
3.88

Entry "O=c1cc(OCc2cn(Cc3ccccc3C(F)(F)F)nn2)c2ccccc2o1" , system hBACE-1 (Homo sapiens): what pIC50 was measured?
4.99

Entry "O=c1cc(OCc2cn(Cc3ccccc3)nn2)c2ccccc2o1" , system hBACE-1 (Homo sapiens): what pIC50 was measured?
4.14

Entry O=c1ccc2ccc(OCc3cn(Cc4ccccc4C(F)(F)F)nn3)cc2o1 [19c] , system hBACE-1 (Homo sapiens): what pIC50 was measured?
4.75

Entry "O=c1cc(OCc2cn(Cc3ccccc3F)nn2)c2ccccc2o1" , system hBACE-1 (Homo sapiens): what pIC50 was measured?
3.95

Entry O=c1ccc2ccc(OCc3cn(Cc4ccccc4OC(F)(F)F)nn3)cc2o1 [19d] , system hBACE-1 (Homo sapiens): what pIC50 was measured?
3.76

Entry COc1cccc(Cn2cc(COc3cc4oc(=O)cc(C)c4cc3OC)nn2)c1 [16a] , system hBACE-1 (Homo sapiens): what pIC50 was measured?
3.86

Entry "Cc1ccccc1Cn1cc(COc2cc(=O)oc3ccccc23)nn1" , system hBACE-1 (Homo sapiens): what pIC50 was measured?
3.79

Entry "O=c1cc(OCc2cn(Cc3cccc(Cl)c3)nn2)c2ccccc2o1" , system hBACE-1 (Homo sapiens): what pIC50 was measured?
4.61

Entry "COc1cc(Cn2cc(COc3cc(=O)oc4ccccc34)nn2)cc(OC)c1" , system hBACE-1 (Homo sapiens): what pIC50 was measured?
5.01

Entry CC(=O)c1c(OCc2cn(Cc3ccccc3C(F)(F)F)nn2)ccc2ccc(=O)oc12 [10c] , system hBACE-1 (Homo sapiens): what pIC50 was measured?
3.86

Entry "O=c1cc(OCc2cn(Cc3ccc(C(F)(F)F)cc3)nn2)c2ccccc2o1" , system hBACE-1 (Homo sapiens): what pIC50 was measured?
4.71
